# Target Under Test: purified, full length human ERα (Homo sapiens)
# Construct: purified, full length human ERα and ERβ
# Sequence (P03372 whole entry): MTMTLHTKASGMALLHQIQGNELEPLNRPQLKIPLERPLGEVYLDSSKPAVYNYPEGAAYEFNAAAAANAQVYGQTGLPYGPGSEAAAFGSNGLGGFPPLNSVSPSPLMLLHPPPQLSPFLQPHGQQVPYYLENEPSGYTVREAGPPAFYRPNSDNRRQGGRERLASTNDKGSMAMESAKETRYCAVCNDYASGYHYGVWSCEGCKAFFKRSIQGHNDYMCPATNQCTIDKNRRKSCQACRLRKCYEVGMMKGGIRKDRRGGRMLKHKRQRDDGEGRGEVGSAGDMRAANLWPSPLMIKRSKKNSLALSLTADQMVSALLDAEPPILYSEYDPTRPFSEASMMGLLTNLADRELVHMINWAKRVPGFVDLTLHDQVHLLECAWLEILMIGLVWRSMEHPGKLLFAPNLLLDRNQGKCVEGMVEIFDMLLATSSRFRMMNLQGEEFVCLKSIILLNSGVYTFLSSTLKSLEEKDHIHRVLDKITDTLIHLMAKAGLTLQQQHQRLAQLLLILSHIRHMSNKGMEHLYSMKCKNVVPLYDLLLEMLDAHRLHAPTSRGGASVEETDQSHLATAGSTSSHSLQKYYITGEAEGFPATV
# Assay Remarks: Relative binding affinity (RBA) radiometric competitive binding assay, ERα
# Experimental Conditions: relative binding affinity, E2 (estradiol) is 100%; tritiated estradiol tracer
Measured Quantity: RBA ERα
Answer format: number, then unit.

Study these solved cases before continuing.
- Compound: "Oc1ccc(-n2cc3cc(O)cc(F)c3n2)cc1 [Compound 8]"
  RBA ERα: "0.258%"
- Compound: "Oc1cc(Cl)c2nn(-c3ccc(O)c(F)c3)cc2c1 [Compound 13]"
  RBA ERα: "0.023%"
- Compound: "Oc1ccc(-n2nc3c(Br)cc(O)cc3c2F)cc1 [Compound 2]"
  RBA ERα: "2.27%"
- Compound: "Oc1cccc(-n2nc3c(Br)cc(O)cc3c2Cl)c1 [Compound 12]"
  RBA ERα: "0.16%"
- Compound: "Oc1ccc(-n2nc3c(Cl)cc(O)cc3c2Cl)cc1 [Compound 7]"
  RBA ERα: "6.9 ± 2.4%"
- Compound: "Oc1ccc(-n2nc3cc(Cl)c(O)cc3c2Cl)cc1 [Compound 19]"
  RBA ERα: "0.055%"

Quick one: RBA ERα of Oc1ccc(-n2nc3c(Br)cc(O)cc3c2I)cc1 [Compound 5] ? 6.95%

Likewise for Oc1ccc(-n2cc3cc(O)cc(Br)c3n2)cc1 [Compound 1] ? 0.244%

Now this one: Oc1ccc(-n2nc3c(Cl)cc(O)cc3c2Cl)c(F)c1 [Compound 16] 4.71%

Entry to check: Oc1cc(Cl)c2nn(-c3ccc(O)c(F)c3)c(Cl)c2c1 [Compound 14] 0.86%
